Measured values drawn from paper PMC12416549 for this set.

Target under test: T1, TNFR1 (Homo sapiens, UniProt P19438)
T1 chain: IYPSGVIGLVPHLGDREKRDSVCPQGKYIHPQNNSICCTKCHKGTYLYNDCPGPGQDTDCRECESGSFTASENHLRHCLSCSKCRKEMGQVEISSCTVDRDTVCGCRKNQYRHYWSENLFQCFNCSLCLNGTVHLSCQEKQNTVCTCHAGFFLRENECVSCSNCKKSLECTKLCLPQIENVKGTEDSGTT
Assay overview: yeast display SC50
Endpoint name: apparent Kd (screen) (nM)

(I) L39T (designed binder) MTLQELLREEALRRAEAEAFRYALELLAEKFPEQKEYLTDLAEEIESQIRSLSGVDVEDVRKFLDKEWAWVKELLAEHPAELAEVEAARAARLAELRAEVEAKVAA
(II) V55E (designed binder) MTLQELLREEALRRAEAEAFRYALELLAEKFPEQKEYLLDLAEEIESQIRSLSGEDVEDVRKFLDKEWAWVKELLAEHPAELAEVEAARAARLAELRAEVEAKVAA
(III) F63E (designed binder) MTLQELLREEALRRAEAEAFRYALELLAEKFPEQKEYLLDLAEEIESQIRSLSGVDVEDVRKELDKEWAWVKELLAEHPAELAEVEAARAARLAELRAEVEAKVAA
(IV) A11W (designed binder) MTLQELLREEWLRRAEAEAFRYALELLAEKFPEQKEYLLDLAEEIESQIRSLSGVDVEDVRKFLDKEWAWVKELLAEHPAELAEVEAARAARLAELRAEVEAKVAA
// rank the listed binders by apparent Kd (screen), lowest value first Returns: the labels listed in the requested order.
IV, III, I, II
(IV: 0.405 nM, III: 0.593 nM, I: 2.05 nM, II: 15.2 nM)
